Test system: Staphylococcus aureus
Assay: Microbicidal activity of the myeloperoxidase system (p-MPO, glucose oxidase, glucose) with amino acids in the presence of blood, CFU plate counts; synergy determination from these CFU
Assay type: cell-based
Details: MPO 25 μg/mL; AA 5 mM; 60 min
observation-type: Log 10 (CFU + 1) Survivors

INSERT INTO assay_data (compound, recorded_measurement) VALUES
  ('N[C@H](Cc1ccc(O)cc1)C(=O)O', 5.9),
  ('CC(C)[C@H](N)C(=O)O', 0.0),
  ('N[C@H](Cc1c[nH]cn1)C(=O)O', 6.0),
  ('N[C@@H](Cc1ccccc1)C(=O)O', 0.0),
  ('COC(=O)[C@H](C)N', 0.0),
  ('N[C@H](Cc1ccccc1)C(=O)O', 0.0),
  ('C[C@@H](O)[C@H](N)C(=O)O', 7.1),
  ('O=C(O)[C@@H]1CCCN1', 3.9),
  ('NC(=O)CC[C@@H](N)C(=O)O', 7.0),
  ('O=C(O)CNC(=O)c1ccccc1', 5.9),
  ('C[C@H](N)C(=O)O', 4.1),
  ('N[C@@H](CC(=O)O)C(=O)O', 7.0),
  ('CC[C@@H](C)[C@@H](N)C(=O)O', 0.0),
  ('CC(C)C[C@H](N)C(=O)O', 0.0),
  ('NCCC(=O)O', 0.0),
  ('CC(C)[C@@H](N)C(=O)O', 0.0),
  ('N[C@@H](CCC(=O)O)C(=O)O', 7.0),
  ('N=C(N)NCCC[C@@H](N)C(=O)O', 6.7),
  ('CC[C@H](C)[C@H](N)C(=O)O', 0.0),
  ('N[C@@H](Cc1ccc(O)cc1)C(=O)O', 7.1),
  ('O=C(O)[C@H]1CCCN1', 2.4),
  ('N[C@@H](Cc1c[nH]cn1)C(=O)O', 7.3),
  ('NC(=O)CC[C@H](N)C(=O)O', 7.1);

* * *

# log reduction at 5000 µM values compiled below
Test system: Staphylococcus aureus
Assay: Control: microbicidal activity of the amino acid or analogue alone (no glucose, MPO, glucose oxidase) in the presence of blood
Assay type: cell-based
Settings: Staphylococcus aureus, 1 h; amino acid alone 5 mM; MPO 0; GO 0; no glucose; blood; without replication; read-out: Log Reduction 60 min
observation-type: log reduction at 5000 µM

INSERT INTO measurements (compound, recorded_measurement) VALUES
  ('N[C@H](Cc1c[nH]cn1)C(=O)O', 0),
  ('O=CC(=O)O', 0.1),
  ('N[C@@H](CS)C(=O)O', 0);
